B1: DYRK1B (parent)
chain: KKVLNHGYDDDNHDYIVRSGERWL

# Variants of: B1
# measurementDescription: protein stability index of a GFP-peptide fusion (GPS, HEK-293T) (PSI 1-6); higher = more stable;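 also: lentivirally expressed fusions sorted by FACS into six bins by GFP to DsRed ratio, PSI derived from sequencing read proportions per bin multiplied by bin number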
# testConditions: c terminus: a fixed tail appended
Task for the reader: assign each of the following variants its reported protein stability index.
Please respond with just the number, no unit label.

### Prompt Can you share its protein stability index? I mean this variant: R18M
### Response 2.39

### Prompt Can you share its protein stability index? I mean this variant: G20T
### Response 2.83

### Prompt Can you share its protein stability index? I mean this variant: L4I
### Response 3.33

### Prompt Can you share its protein stability index? I mean this variant: D14V
### Response 2.13

### Prompt Can you share its protein stability index? I mean this variant: L24I
### Response 3.33

### Prompt Can you share its protein stability index? I mean this variant: S19R
### Response 2.78

### Prompt Can you share its protein stability index? I mean this variant: V3C
### Response 2.41

### Prompt Can you share its protein stability index? I mean this variant: E21N
### Response 2.67

### Prompt Can you share its protein stability index? I mean this variant: R18T
### Response 2.92
